System: HCT116 human colorectal carcinoma cells
assay summary: CellTiter-Glo Luminescent Cell Viability Assay
Assay type: cell-based
assay context: HCT-116, 72 h, 3 days
pEC50: −log10 of the molar value.
result type: pEC50

compound=Cc1ccc(NS(=O)(=O)c2cnn([C@H](C)[C@H](C)O)c2)c2[nH]cc(C#N)c12 reported_value="> 6.60"

Task item: pEC50 for O=S(=O)(Nc1cccc2c(Cl)c[nH]c12)c1cnn(CCCF)c1 ?
Reply: < 6.00

Task item: pEC50 for Cc1ccc(NS(=O)(=O)c2cnn(C(F)F)c2N)c2[nH]cc(C#N)c12 ?
Reply: > 6.60

Task item: pEC50 for N#Cc1c[nH]c2c(NS(=O)(=O)c3cnn([C@@H](CO)C(F)F)c3)ccc(F)c12 ?
Reply: < 6.00

Task item: pEC50 for Cc1ccc(NS(=O)(=O)c2cnn(C(C)(F)CO)c2)c2[nH]cc(C#N)c12 (centres unmarked) ?
Reply: 6.00 to 6.60

Task item: pEC50 for Cn1ncc(S(=O)(=O)Nc2ccc(Cl)c3c(C#N)n[nH]c23)c1N ?
Reply: < 6.00

Task item: pEC50 for O=S(=O)(Nc1cccc2c(Cl)c[nH]c12)c1cnn(C(F)F)c1 ?
Reply: 6.00 to 6.60

Task item: pEC50 for CCn1cc(S(=O)(=O)Nc2ccc(F)c3c(C#N)c[nH]c23)c(N)n1 ?
Reply: 6.00 to 6.60

Where do the numbers come from? From patent US20250368627A1.
